These measurements were taken from patent US10407445B2.

system: GT1a replicon encoding NS5A mutation M28T; experiment: Transient replication assay, GT1a replicon with NS5A mutation M28T; type: cell-based; conditions: Hepatitis C virus, read-out: EC50 1a M28T

molecule	EC50, pM
COC(=O)N[C@H](C(=O)N1C[C@]2(CCCOC2)C[C@H]1c1nc2ccc3cc(-c4ccc(-c5cnc([C@@H]6C[C@H]7C[C@H]7N6C(=O)[C@@H](NC(=O)OC)C(C)C)[nH]5)cc4)ccc3c2[nH]1)C(C)C	30
COC(=O)N[C@H](C(=O)N1C[C@]2(CCCOC2)C[C@H]1c1ncc(-c2ccc(-c3ccc(-c4cnc([C@@H]5C[C@@H]6CCC[C@@H]6N5C(=O)[C@@H](NC(=O)OC)C(C)C)[nH]4)cc3)cc2)[nH]1)C(C)C	30
COC(=O)N[C@H](C(=O)N1[C@H](c2nc3ccc4cc(-c5ccc(-c6cnc([C@@H]7C[C@@]8(CCCOC8)CN7C(=O)[C@@H](NC(=O)OC)C7C[C@@H](C)O[C@H](C)C7)[nH]6)cc5)ccc4c3[nH]2)C[C@@H]2CCC[C@@H]21)C(C)C (some centres unmarked)	40
COC(=O)N[C@H](C(=O)N1CCC[C@H]1c1ncc(-c2ccc(-c3ccc4c(ccc5nc([C@@H]6C[C@]7(CCOC7)CN6C(=O)[C@@H](NC(=O)OC)C(C)C)[nH]c54)c3)cc2)[nH]1)C(C)C	100
COC(=O)N[C@H](C(=O)N1C[C@]2(CCCOC2)C[C@H]1c1ncc(-c2ccc(-c3ccc4c(c3)CCCc3nc([C@@H]5C[C@@H]6CCCC[C@@H]6N5C(=O)[C@@H](NC(=O)OC)C(C)C)[nH]c3-4)cc2)[nH]1)C(C)C	600
